Reference source: paper PMC3175016

Test system: male Fischer 344 rats
assay details: Six-hour urine protein content after a single i.p. dose
Type: in vivo
test parameters: dose 0.2 (head mg/kg; text mmol/kg), i.p. in corn oil, mean ± SE, N = 3–4
Marks after values point to notes of the source that are not given here.
endpoint label: Six-hour urine protein content

Give the value of Six-hour urine protein content reported for the following: O=C1CSC(=O)N1c1ccccc1 2.1 ± 0.5^d mg

***
Entry O=C1CSC(=O)N1c1cc(C(F)(F)F)cc(C(F)(F)F)c1 needs its Six-hour urine protein content filled in; supply it. 1.1 ± 0.3^e mg

Could you please provide reported Six-hour urine protein content for CC1SC(=O)N(c2cc(Cl)cc(Cl)c2)C1=O (centres unmarked) ? Thanks! 2.1 ± 0.7^a mg
